This collection of values is drawn from patent US8680012B2.

System: Alopecurus myosuroides (ALOMY)
test-method-notes: Example B post-emergence herbicidal activity, glasshouse pot test
Assay type: in vivo
condition-notes: 312 h, rate 250 g/ha, evaluated after 13 days, read-out: Post-emergence activity ALOMY (100=total damage to plant; 0=no damage to plant)
Could you please mark 1 for values of pest or weed control at 250 g/ha below 30% and 0 for values at or above it?

Here are 3 compounds together with their reported answers.
* CCc1ccc(-c2ccc(Cl)c(C(F)(F)F)c2F)cc1C1=C(O)C(C)(C)OC(C)(C)C1=O | 0
* CCc1ccc(-c2ccc(Cl)c(F)c2)cc1C1=C(O)C(C)(C)SC(C)(C)C1=O (single isomer, unassigned) | 0
* CCc1ccc(-n2cnc(Cl)c2Cl)cc1C1=C(OC(=O)OC)C(C)(C)OC(C)(C)C1=O | 0

For Cc1ccc(-c2c(Cl)cc(Cl)cc2Cl)cc1C1=C(O)C(C)(C)OC(C)(C)C1=O , is the recorded pest or weed control at 250 g/ha below the cut-off of 30%?
1

is_below(pest or weed control at 250 g/ha, 30%) for CCc1ccc(-c2ccc(Cl)cc2F)cc1C1=C(O)C(C)(C)C(=O)C(C)(C)C1=O ?
1

Lab note: pest or weed control at 250 g/ha threshold 30%. Does this compound come in strictly under it? CCc1ccc(-c2ccc(Cl)cc2C#N)cc1C1=C(O)C(C)(C)OC(C)(C)C1=O
0

----------
# maps each entry to its pest or weed control at 250 g/ha
Test system: Alopecurus myosuroides (ALOMY)
test-method-notes: Example B post-emergence herbicidal activity, glasshouse pot test
Type: in vivo
condition-notes: 312 h, rate 250 g/ha, evaluated after 13 days, read-out: Post-emergence activity ALOMY (100=total damage to plant; 0=no damage to plant)
Protocol: Seeds of a variety of test species were sown in standard soil in pots. […] After 13 days for pre and post-emergence, the test was evaluated (100=total damage to plant; 0=no damage to plant). […]
A complete answer gives the number and then names the unit.

Below are worked cases with known answers.
• Cc1cc(C)c(-c2ccc(Cl)c(F)c2)c(C)c1C1=C(O)C(C)(C)OC(C)(C)C1=O [Compound A-97] = 40%
• CCc1ccc(-c2ccc(Cl)nc2)cc1C1=C(O)C(C)(C)C(=O)C(C)(C)C1=O [Compound B-9] = 40%
• CCc1ccc(-c2ccc(Cl)c(OC)c2)cc1C1=C(O)C(C)(C)OC(C)(C)C1=O [Compound A-135] = 100%
• CCOc1ccc(-c2ccc(Cl)cc2F)cc1C1=C(O)C(C)(C)OC(C)(C)C1=O [Compound A-88] = 50%
• Cc1ccc(-c2ccc(Cl)cc2F)cc1C1=C(O)C(C)(C)OC(C)(C)C1=O [Compound A-59] = 30%
• CCc1ccc(-c2ccc(Cl)c(C(F)(F)F)c2)cc1C1=C(O)C(C)(C)OC(C)(C)C1=O [Compound A-67] = 80%

Shifting focus to the molecule that follows.
Tell me measured pest or weed control at 250 g/ha for CC[C@]12CC[C@H](O1)C(=O)C(c1cc(-c3ccc(Cl)cc3)ccc1C)=C2O (single isomer, unassigned) [Compound A-80] please.
30%

----------
Test system: Amaranthus retroflexus (AMARE)
test-method-notes: Example B post-emergence herbicidal activity, glasshouse pot test
Format: in vivo
condition-notes: 312 h, rate 250 g/ha, evaluated after 13 days, read-out: Post-emergence activity AMARE (100=total damage to plant; 0=no damage to plant)
Listed compounds paired with reported pest or weed control at 250 g/ha
# do not omit the unit; it follows the number

* CCc1ccc(-c2ccc(Br)cc2)cc1C1=C(O)C(C)(C)OC(C)(C)C1=O [Compound A-81] | 0%
* CCc1ccc(-c2ccc(Cl)c(C(F)(F)F)c2)cc1C1=C(O)C(C)(C)OC(C)(C)C1=O [Compound A-67] | 100%
* CCc1ccc(-c2ccc(Cl)nc2C)cc1C1=C(O)C(C)(C)OC(C)(C)C1=O [Compound A-77] | 0%

Now turn to the next compound.
Return the recorded pest or weed control at 250 g/ha value; entry: CCc1ccc(-c2ccc(Cl)c(F)c2)cc1C1=C(O)C(C)(C)[S+]([O-])C(C)(C)C1=O (stereo not shown) [Compound C-12]
0%
